system: PXR; assay: Aggregate nuclear receptor activity: PXR; design: species or system human; conditions: aggregate human NR activity, in words
property.label: activity with PXR

CC1(C)C(C=C(Cl)Cl)C1C(=O)OCc1cccc(Oc2ccccc2)c1 (centres unmarked); active
Cl[C@H]1[C@H](Cl)[C@@H](Cl)[C@@H](Cl)[C@H](Cl)[C@H]1Cl; active
C#CC(C)(C)NC(=O)c1cc(Cl)cc(Cl)c1 [Propyzamide]; active

----------
Below, each of the compounds is paired with its reported ATG_PPARg_TRANS value.
target: PPARG (peroxisome proliferator-activated receptor gamma) (Homo sapiens, UniProt P37231); construct: expressed in transfected cells; host or cells: HepG2; assay: ATG_PPARg_TRANS: Factorial reporter gene assay (HepG2); assay type: cell-based; conditions: HepG2 reporter
Sequence (P37231 whole entry): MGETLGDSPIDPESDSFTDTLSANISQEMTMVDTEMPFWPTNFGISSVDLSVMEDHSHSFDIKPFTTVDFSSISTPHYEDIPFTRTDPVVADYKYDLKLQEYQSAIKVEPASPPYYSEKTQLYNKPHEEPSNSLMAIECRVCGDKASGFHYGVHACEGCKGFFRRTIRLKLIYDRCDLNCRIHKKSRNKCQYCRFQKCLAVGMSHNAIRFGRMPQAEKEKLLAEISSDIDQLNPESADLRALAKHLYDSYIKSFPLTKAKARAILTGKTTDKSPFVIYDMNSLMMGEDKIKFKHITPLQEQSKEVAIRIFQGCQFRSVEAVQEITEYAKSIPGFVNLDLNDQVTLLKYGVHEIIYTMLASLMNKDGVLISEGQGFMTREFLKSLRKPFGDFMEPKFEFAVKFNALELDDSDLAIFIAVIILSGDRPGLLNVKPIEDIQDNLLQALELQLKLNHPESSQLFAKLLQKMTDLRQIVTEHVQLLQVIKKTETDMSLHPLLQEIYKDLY
Reply briefly: the number, and no unit.

A selection of reference data follows.
CCOC(=O)COc1cc(-c2nn(C)c(OC(F)F)c2Cl)c(F)cc1Cl [r271]; 4.328
CC(COc1ccc(Oc2ccccc2)cc1)Oc1ccccn1 (stereo not drawn) [r274]; 4.42

Now take the following compound into account.
In one line, give reported ATG_PPARg_TRANS of the entry CC(C)=CC1C(C(=O)OCc2coc(Cc3ccccc3)c2)C1(C)C (stereo not drawn) [r280] .
4.495

----------
Target: PXR (NR1I2) (Homo sapiens, UniProt O75469)
Experiment: ATG_PXRE_CIS: Factorial reporter gene assay (HepG2)
Assay type: cell-based
Design: endogenous in cells; host or cells: HepG2
Details: HepG2
Source text: A multiple reporter transcription unit (MRTU) library consisting of 48 transcription factor binding sites was transfected into the HepG2 human liver hepatoma cell line. In addition to the cis-acting reporter genes (CIS), a modification of the approach was used to generate a trans-system (TRANS) with a mammalian one-hybrid assay consisting of an additional 25 MRTU library reporting the activity of nuclear receptor super-family members. […]
So basically, if ATG_PXRE_CIS comes in under 5 it's Satisfied, and if it's 5 or more it's Not satisfied.

CCc1cccc(C)c1N(C(=O)CCl)C(C)COC (centres unmarked) [row 208]; Not satisfied

In plain terms, does Clc1cccc(C(Cl)(Cl)Cl)n1 [row 221] come in under 5 for ATG_PXRE_CIS?
Satisfied

In plain terms, does COC(=O)c1ccccc1S(=O)(=O)NC(=O)Nc1nc(OC(F)F)cc(OC(F)F)n1 [r250] come in under 5 for ATG_PXRE_CIS?
Satisfied

In plain terms, does CNc1cnn(-c2cccc(C(F)(F)F)c2)c(=O)c1Cl [row 222] come in under 5 for ATG_PXRE_CIS?
Satisfied

In plain terms, does CCN(CC)C(=O)C(C)Oc1cccc2ccccc12 (centres unmarked) [row 219] come in under 5 for ATG_PXRE_CIS?
Not satisfied

In plain terms, does CCSC(=O)N1CCCCCC1 [row 214] come in under 5 for ATG_PXRE_CIS?
Satisfied

----------
target: PXR Human (NR1I2) (Homo sapiens); assay: NCGC_PXR_Agonist_human: GAL4 BLAM Reporter gene assay: PXR Human; format: cell-based; conditions: agonist mode
property.label: NCGC_PXR_Agonist_human
Reply briefly: the number, and no unit.

CCCN(CCC)c1c([N+](=O)[O-])cc(S(N)(=O)=O)cc1[N+](=O)[O-] [row 224]; 5.133
CCOC(=O)COc1cc(-c2nn(C)c(OC(F)F)c2Cl)c(F)cc1Cl [r271]; 4.477
C#CCC1=C(C)[C@H](OC(=O)[C@H]2[C@H](C=C(C)C)C2(C)C)CC1=O [r249]; 4.699
CCN(CC)C(=O)C(C)Oc1cccc2ccccc12 (stereo not drawn) [row 219]; 6.32
CCOc1cc(Oc2ccc(C(F)(F)F)cc2Cl)ccc1[N+](=O)[O-] [r233]; 4.683

Now take the following compound into account.
In one line, give reported NCGC_PXR_Agonist_human of the entry CNC(=S)[S-].O.O.O.[Na+] [row 197] .
4.503

----------
test system: CYP2B6; test: CLZD_CYP2B6: Change in expression of CYP2B6 (primary human hepatocytes); format: cell-based; settings: 24 hr, scale not given, looks like -log10 of molar active concentration, 0 = no activity
Below, each of the molecules is paired with its reported CLZD_CYP2B6_24 value.
Reply briefly: the number, and no unit.

A selection of reference data follows.
CC(C)N1C(=O)c2ccccc2NS1(=O)=O; 0
COC(=O)c1ccccc1CS(=O)(=O)NC(=O)Nc1nc(OC)cc(OC)n1; 0
CCC(C)Nc1c([N+](=O)[O-])cc(C(C)(C)C)cc1[N+](=O)[O-] (centres unmarked); 5.323
O=C(Nc1ccccc1-c1ccc(Cl)cc1)c1cccnc1Cl; 5.164

In one line, give reported CLZD_CYP2B6_24 of the entry CC1=C(C(=O)Nc2ccccc2)SCCO1 .
4.923

----------
Below, each of the compounds is paired with its reported CLZD_CYP2B6_24 value.
system: CYP2B6; assay: CLZD_CYP2B6: Change in expression of CYP2B6 (primary human hepatocytes); format: cell-based; conditions: 24 hr
Reply briefly: the number, and no unit.

A selection of reference data follows.
CCN(CC)C(=O)C(C)Oc1cccc2ccccc12 (stereo not drawn) [row 219]; 4.599
Cc1[nH]c(=O)n(C(C)(C)C)c(=O)c1Cl [r296]; 5.239

In one line, give reported CLZD_CYP2B6_24 of the entry CCCCC(C#N)(Cn1cncn1)c1ccc(Cl)cc1 (stereo not drawn) [row 217] .
4.948

----------
test system: CYP3A4; test: CLZD_CYP3A4: Change in expression of CYP3A4 (primary human hepatocytes); format: cell-based; details: 24 hr
Below, each of the compounds is paired with its reported CLZD_CYP3A4_24 value.
Reply briefly: the number, and no unit.

A selection of reference data follows.
COCC(=O)N(c1c(C)cccc1C)C(C)C(=O)OC (stereo not shown); 4.985
CCCCC(CC)CN1C(=O)C2C3C=CC(C3)C2C1=O (stereo not shown); 4.752
CCc1ccc(C(=O)NN(C(=O)c2cc(C)cc(C)c2)C(C)(C)C)cc1; 5.287

Now take the following compound into account.
// fetch CLZD_CYP3A4_24 for CCCN(CC)CC1COC2(CCC(C(C)(C)C)CC2)O1 (stereo not shown) ; system: CYP3A4
5.192

----------
Below, each of the compounds is paired with its reported CLZD_CYP2B6_24 value.
system: CYP2B6; assay: CLZD_CYP2B6: Change in expression of CYP2B6 (primary human hepatocytes); type: cell-based; conditions: 24 hr
Reply briefly: the number, and no unit.

In one line, give reported CLZD_CYP2B6_24 of the entry Cc1nc(N(C)C)nc(OC(=O)N(C)C)c1C .
5.267

In one line, give reported CLZD_CYP2B6_24 of the entry CC(C)Nc1nc(Cl)nc(NC(C)C)n1 .
5.165

In one line, give reported CLZD_CYP2B6_24 of the entry COc1cccc(C(=O)NN(C(=O)c2cc(C)cc(C)c2)C(C)(C)C)c1C .
5.305

----------
target: PXR (NR1I2) (Homo sapiens, UniProt O75469); assay: ATG_PXR_TRANS: Factorial reporter gene assay (HepG2); format: cell-based; set-up: endogenous in cells; host or cells: HepG2; conditions: HepG2; scale not given, looks like -log10 of molar active concentration; 0 = no activity
Below, each of the compounds is paired with its reported ATG_PXR_TRANS value.
Reply briefly: the number, and no unit.

CC(C)(c1ccc(O)cc1)c1ccc(O)cc1; 4.854
O=C(Nc1ccccc1-c1ccc(Cl)cc1)c1cccnc1Cl; 0
CC(C)OC(=O)Nc1cccc(Cl)c1; 4.347

In one line, give reported ATG_PXR_TRANS of the entry COc1ccc(-c2ccccc2)cc1NNC(=O)OC(C)C .
4.959

----------
test system: CYP1A2; test: CLZD_CYP1A2: Change in expression of CYP1A2 (primary human hepatocytes); format: cell-based; conditions: 24 hr
property.label: CLZD_CYP1A2_24

In one line, give reported CLZD_CYP1A2_24 of the entry CCCC1COC(Cn2cncn2)(c2ccc(Cl)cc2Cl)O1 (stereo not shown) .
5.229

In one line, give reported CLZD_CYP1A2_24 of the entry COc1ccc(C(c2ccc(OC)cc2)C(Cl)(Cl)Cl)cc1 .
5.201

In one line, give reported CLZD_CYP1A2_24 of the entry CCCN(CCC)c1c([N+](=O)[O-])cc(C(F)(F)F)c(N)c1[N+](=O)[O-] .
5.166

In one line, give reported CLZD_CYP1A2_24 of the entry CNc1cnn(-c2cccc(C(F)(F)F)c2)c(=O)c1Cl .
4.939

----------
Molecular target: PXR (NR1I2) (Homo sapiens)
Sequence (O75469 1-434): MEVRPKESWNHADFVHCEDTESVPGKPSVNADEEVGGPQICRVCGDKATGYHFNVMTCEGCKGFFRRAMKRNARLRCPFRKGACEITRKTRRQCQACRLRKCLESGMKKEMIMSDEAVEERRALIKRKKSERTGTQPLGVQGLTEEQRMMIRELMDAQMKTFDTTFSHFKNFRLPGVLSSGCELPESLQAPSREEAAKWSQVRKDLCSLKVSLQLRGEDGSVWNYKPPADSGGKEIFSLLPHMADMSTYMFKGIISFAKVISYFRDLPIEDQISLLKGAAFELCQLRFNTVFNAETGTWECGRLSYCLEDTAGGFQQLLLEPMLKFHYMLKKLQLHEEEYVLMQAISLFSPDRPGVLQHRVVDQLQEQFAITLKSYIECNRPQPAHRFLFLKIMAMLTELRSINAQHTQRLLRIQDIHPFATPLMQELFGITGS
Assay: ATG_PXR_TRANS: Factorial reporter gene assay (HepG2)
Type: cell-based
Set-up: endogenous in cells; host or cells: HepG2
Conditions: HepG2
Text: A multiple reporter transcription unit (MRTU) library consisting of 48 transcription factor binding sites was transfected into the HepG2 human liver hepatoma cell line. In addition to the cis-acting reporter genes (CIS), a modification of the approach was used to generate a trans-system (TRANS) with a mammalian one-hybrid assay consisting of an additional 25 MRTU library reporting the activity of nuclear receptor super-family members. […]
Below, each of the compounds is paired with its reported ATG_PXR_TRANS value.
Reply briefly: the number, and no unit.

COCC(=O)N(c1c(C)cccc1C)C(C)C(=O)OC (stereo not shown) [row 196]; 4.854
CCOc1cc(Oc2ccc(C(F)(F)F)cc2Cl)ccc1[N+](=O)[O-] [r233]; 4.699
CCCN(CCC)c1c([N+](=O)[O-])cc(S(N)(=O)=O)cc1[N+](=O)[O-] [row 224]; 5.538

Now take the following compound into account.
// fetch ATG_PXR_TRANS for CCSC(=O)N1CCCCCC1 [row 214] ; system: PXR (NR1I2) (Homo sapiens)
4.208
